# target.entity: HLA-DR DRB5*0101 (human)
# test.details: radioligand binding
measured.parameter: IC50

Task item: Given KSEEFQKRLHPYKDFIATLG [PAP_(173-192)] , state its recorded IC50.
Reply: 24 nM
